Sourced from the supplement of paper PMC9170038

# Tested on: MS2 coat protein
# Test Protocol: apparent KD of MS2 coat protein; higher = weaker reporter binding
# Test Context: Eterna round: R107; input ligand: arginine 13.2 mM
apparent KD of MS2 coat protein values by entry
Express it in nM; write the number only.

Input Sequence | Quantity Kind | Unit Annotation | Experimental Value
UCGUGUGUUUCGGAUACCAGUGUGGUCGAUACAUGAGGAUCACCCAUGUUAGAGGAGGUACACCCUUGGCAGCCGGCUGUUGCGG [kdtmullin] | apparent KD of MS2 coat protein | nM | 59.9
AGACAUGAGGAUCACCCAUGUAGUACGGAUACCAGAUCCAGAUGCGUCCCUUGGCAGCUGUAGUACAGCGUUACAUCGCUCAUAG [Exclusion - Theophylline A (Freestyle 25)] | apparent KD of MS2 coat protein | nM | 21
CGCGUCCCGGACGAUACCAGAUAUGAGCGACACAUGAGGAUCACCCAUGUCAAUCAUGAGAUCCCUUGGCAGCGUUUGCACAACU [theeternabot_sameState_MS2_Theo_B_8] | apparent KD of MS2 coat protein | nM | 81.2
GGGUAUGAUCCGGAUACCAGCGAACAUGAGGAUCACCCAUGUGACCUAAGAUAGGCUCUACGCCCUUGGCAGCCGCGAUCGCGUU [Same State Theophylline B GF8] | apparent KD of MS2 coat protein | nM | 21.7
CACGAAAGAUCGGCCGCCACUAGCCUGUGUGUACUAGCACAUGAGGAUCACCCAUGUUCUUGCGUUAGGACCGGGAUUGAGCGUG [#05 Exclusion Tryptophan B] | apparent KD of MS2 coat protein | nM | 17.1

Let us examine a further case.
Need apparent KD of MS2 coat protein, item UGUCAGCGAAAGUUGACAUGUCUUACCGGUCGAGGACCGGUACGGCCGCCACUCGAUCACUCGCACAUGAGGAUCACCCAUGUCG [SS Tryp A #20]
11.7
